- Target Of Assay: PLD2 (Homo sapiens (Human))
- Sequence (O14939 whole entry): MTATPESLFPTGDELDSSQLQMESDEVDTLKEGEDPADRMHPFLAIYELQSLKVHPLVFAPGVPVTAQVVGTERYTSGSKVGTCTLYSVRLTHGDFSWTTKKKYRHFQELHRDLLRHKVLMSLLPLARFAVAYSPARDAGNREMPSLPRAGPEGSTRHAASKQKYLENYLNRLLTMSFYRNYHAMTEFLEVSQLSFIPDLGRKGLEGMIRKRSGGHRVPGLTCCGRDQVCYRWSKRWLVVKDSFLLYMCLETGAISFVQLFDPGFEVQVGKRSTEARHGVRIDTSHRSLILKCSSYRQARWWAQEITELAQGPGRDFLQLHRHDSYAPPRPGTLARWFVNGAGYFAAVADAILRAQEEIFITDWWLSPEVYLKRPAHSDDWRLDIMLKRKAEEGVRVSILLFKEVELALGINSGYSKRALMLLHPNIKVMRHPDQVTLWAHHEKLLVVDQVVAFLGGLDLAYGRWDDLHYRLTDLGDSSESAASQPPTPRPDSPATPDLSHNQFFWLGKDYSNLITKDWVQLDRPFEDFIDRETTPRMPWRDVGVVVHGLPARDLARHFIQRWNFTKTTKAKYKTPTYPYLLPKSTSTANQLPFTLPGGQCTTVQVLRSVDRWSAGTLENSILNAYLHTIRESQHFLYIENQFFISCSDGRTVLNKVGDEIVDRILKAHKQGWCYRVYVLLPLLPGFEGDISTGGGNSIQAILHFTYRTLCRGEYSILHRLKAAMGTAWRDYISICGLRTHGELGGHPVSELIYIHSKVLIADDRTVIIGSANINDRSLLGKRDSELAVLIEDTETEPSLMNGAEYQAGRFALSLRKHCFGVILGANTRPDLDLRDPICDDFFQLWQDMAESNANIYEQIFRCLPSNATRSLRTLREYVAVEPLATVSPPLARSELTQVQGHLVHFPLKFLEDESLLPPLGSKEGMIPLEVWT
- Measurement Protocol: Cellular CRCs: PLD2 response in HEK293gfpPLD2 (293-PLD2) cells
- Assay type: cell-based
Counter-ions that a name gives are not always drawn.
Measured Metric: log10(IC50) (log10 of the value in nM)
A value of 2 here means IC50 of 100 in nM, since values are log10.

Past entries and their recorded results:
Given C[C@@H](CN1CCC2(CC1)C(=O)NC[C@H]2c1ccc(F)cc1)NC(=O)C#Cc1ccccc1 [NJ5, 2,2,2-trifluoroacetate] , respond with its log10(IC50).
3.60

Given C[C@@H](CN1CCC2(CC1)C(=O)NC[C@@H]2c1ccc(F)cc1)NC(=O)c1cc2ccccc2[nH]1 [P1G] , respond with its log10(IC50).
1.08

Given C[C@@H](CN1CCC2(CC1)C(=O)NC[C@H]2c1ccc(F)cc1)NC(=O)c1cc2ccccc2[nH]1 [NG3, trifluoroacetate] , respond with its log10(IC50).
2.15

Given C[C@@H](CN1CCC2(CC1)C(=O)NC[C@@H]2c1ccc(F)cc1)NC(=O)c1ccc(F)cc1 [NGH] , respond with its log10(IC50).
2.32

Others:
Given C[C@@H](CN1CCC2(CC1)C(=O)NC[C@@H]2c1ccc(F)cc1)NC(=O)C#Cc1ccccc1 [NGF, 2,2,2-trifluoroacetate] , respond with its log10(IC50).
2.18

Given O=C(NCCN1CCC2(CC1)C(=O)NC[C@@H]2c1ccc(F)cc1)c1cc2ccccc2[nH]1.O=C(O)C(F)(F)F [P23, 2,2,2-trifluoroacetate] , respond with its log10(IC50).
0.40

Given O=C(C#Cc1ccccc1)NCCN1CCC2(CC1)C(=O)NC[C@@H]2c1ccc(F)cc1.O=C(O)C(F)(F)F [P0Q, 2,2,2-trifluoroacetate] , respond with its log10(IC50).
1.85

---

compounds and their reported IC50
- Target Of Assay: PLD1 (Homo sapiens (Human), UniProt Q13393)
- Sequence (Q13393 whole entry): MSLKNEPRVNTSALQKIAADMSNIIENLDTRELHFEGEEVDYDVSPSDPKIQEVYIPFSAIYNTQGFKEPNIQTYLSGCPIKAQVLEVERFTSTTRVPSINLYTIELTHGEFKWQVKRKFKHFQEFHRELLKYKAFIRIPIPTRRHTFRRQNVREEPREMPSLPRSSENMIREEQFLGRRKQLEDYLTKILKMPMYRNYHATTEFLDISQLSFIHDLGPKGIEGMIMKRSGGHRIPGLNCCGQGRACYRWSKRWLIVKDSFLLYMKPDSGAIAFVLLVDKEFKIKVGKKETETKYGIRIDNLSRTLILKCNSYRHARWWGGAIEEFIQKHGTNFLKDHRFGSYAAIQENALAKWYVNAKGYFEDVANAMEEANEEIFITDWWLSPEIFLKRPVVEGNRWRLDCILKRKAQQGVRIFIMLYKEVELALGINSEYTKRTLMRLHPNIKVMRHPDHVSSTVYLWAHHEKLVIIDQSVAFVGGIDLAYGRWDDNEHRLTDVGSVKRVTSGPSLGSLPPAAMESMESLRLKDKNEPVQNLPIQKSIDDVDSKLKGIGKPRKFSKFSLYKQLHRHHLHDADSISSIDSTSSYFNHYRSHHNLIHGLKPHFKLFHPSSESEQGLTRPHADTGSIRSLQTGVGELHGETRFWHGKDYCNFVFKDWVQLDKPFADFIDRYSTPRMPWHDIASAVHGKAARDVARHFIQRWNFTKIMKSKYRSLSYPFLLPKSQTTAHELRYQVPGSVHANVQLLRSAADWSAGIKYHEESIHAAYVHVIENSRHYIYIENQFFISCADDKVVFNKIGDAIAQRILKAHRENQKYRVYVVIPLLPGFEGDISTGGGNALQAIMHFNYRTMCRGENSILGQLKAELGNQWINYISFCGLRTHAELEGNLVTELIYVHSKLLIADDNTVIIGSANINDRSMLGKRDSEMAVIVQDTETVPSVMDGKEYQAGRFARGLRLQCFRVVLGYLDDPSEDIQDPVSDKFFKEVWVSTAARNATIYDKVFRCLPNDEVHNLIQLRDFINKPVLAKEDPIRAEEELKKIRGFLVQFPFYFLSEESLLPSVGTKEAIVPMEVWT
- Measurement Protocol: Cellular CRCs: PLD1 response in Calu-1 cells
- Type: cell-based
Report as: number unit

Determine reported IC50 for C[C@@H](CN1CCC2(CC1)C(=O)NC[C@@H]2c1ccc(F)cc1)NC(=O)c1ccc(F)cc1 ; test system: PLD1 (Homo sapiens (Human), UniProt Q13393).
0.25 µM

Determine reported IC50 for O=C(C#Cc1ccccc1)NCCN1CCC2(CC1)C(=O)NC[C@@H]2c1ccc(F)cc1.O=C(O)C(F)(F)F [P0Q, 2,2,2-trifluoroacetate] ; test system: PLD1 (Homo sapiens (Human), UniProt Q13393).
1.2 µM

Determine reported IC50 for O=C(NCCN1CCC2(CC1)C(=O)NC[C@@H]2c1ccc(F)cc1)c1cc2ccccc2[nH]1.O=C(O)C(F)(F)F [P23, 2,2,2-trifluoroacetate] ; test system: PLD1 (Homo sapiens (Human), UniProt Q13393).
0.021 µM

Kindly consider the entry below.
Determine reported IC50 for C[C@@H](CN1CCC2(CC1)C(=O)NC[C@@H]2c1ccc(F)cc1)NC(=O)c1cc2ccccc2[nH]1 ; test system: PLD1 (Homo sapiens (Human), UniProt Q13393).
0.001 µM

---

- Target Of Assay: UniProt O14939
- Measurement Protocol: Exogenous CRCs: in vitro PLD2 response
- Assay type: biochemical
- Experimental Parameters: exogenous (in vitro) PLD2; read-out: Exogenous CRCs PLD2 IC50
Measured Metric: IC50 (nM)
# output: bare number, implied unit nM

Given O=C(NCCN1CCC2(CC1)C(=O)NC[C@H]2c1ccc(F)cc1)c1ccc2ccccc2c1.O=C(O)C(F)(F)F [P22, trifluoroacetate] , respond with its IC50.
73

---

- Target Of Assay: PLD1 (Homo sapiens (Human), UniProt Q13393)
- Measurement Protocol: Exogenous CRCs: in vitro PLD1 response
- Assay type: biochemical
- Source text: The screening method can comprise providing a sample comprising a phosholipid and a PLD under conditions that allow the hydrolysis of the phospholipids to a phosphatidic acid, contacting the sample with a candidate agent, measuring enzymatic activity, comparing the enzymatic activity to a control, a decrease in enzymatic activity compared to the control identifying an agent that inhibits the PLD. In some aspects, the PLD is a myr-Aff-1-stimulated mammalian human PLD1 or human PLD2.
Measured Metric: pIC50
Interpret pIC50 as the negative base-10 log of the concentration measured in mol/L.

Determine reported pIC50 for O=C(NCCN1CCC2(CC1)C(=O)NC[C@H]2c1ccc(F)cc1)c1ccc2ccccc2c1.O=C(O)C(F)(F)F [P22, trifluoroacetate] ; test system: PLD1 (Homo sapiens (Human), UniProt Q13393).
5.41

---

compounds and their reported pIC50
- Target Of Assay: PLD1 (Homo sapiens (Human), UniProt Q13393)
- Measurement Protocol: Cellular CRCs: PLD1 response in Calu-1 cells
- Type: cell-based
- Experimental Parameters: Calu-1 cells (PLD1); read-out: Cellular CRCs Calu-1 IC50
Structures can show the parent of a compound that is named as a salt.
Interpret pIC50 as the negative base-10 log of the concentration measured in mol/L.

Determine reported pIC50 for C[C@@H](CN1CCC2(CC1)C(=O)NC[C@@H]2c1ccc(F)cc1)NC(=O)C#Cc1ccccc1 [NGF, 2,2,2-trifluoroacetate] ; test system: PLD1 (Homo sapiens (Human), UniProt Q13393).
7.80

Determine reported pIC50 for C[C@@H](CN1CCC2(CC1)C(=O)NCC2c1ccc(F)cc1)NC(=O)C1C[C@H]1c1ccccc1 (stereo partly drawn) [NGQ, trifluoroacetate] ; test system: PLD1 (Homo sapiens (Human), UniProt Q13393).
5.52

Determine reported pIC50 for C[C@@H](CN1CCC2(CC1)C(=O)NC[C@@H]2c1ccc(F)cc1)NC(=O)C1C[C@H]1c1ccccc1 (stereo partly drawn) [P0A, trifluoroacetate] ; test system: PLD1 (Homo sapiens (Human), UniProt Q13393).
6.22

Others:
Determine reported pIC50 for C[C@@H](CN1CCC2(CC1)C(=O)NC[C@H]2c1ccc(F)cc1)NC(=O)c1cc2ccccc2[nH]1 [NG3, trifluoroacetate] ; test system: PLD1 (Homo sapiens (Human), UniProt Q13393).
7.80

Determine reported pIC50 for C[C@@H](CN1CCC2(CC1)C(=O)NC[C@H]2c1ccc(F)cc1)NC(=O)C#Cc1ccccc1 [NJ5, 2,2,2-trifluoroacetate] ; test system: PLD1 (Homo sapiens (Human), UniProt Q13393).
6.49

Determine reported pIC50 for O=C(NCCN1CCC2(CC1)C(=O)NC[C@@H]2c1ccc(F)cc1)C1C[C@H]1c1ccccc1.O=C(O)C(F)(F)F (stereo partly drawn) [P1E, trifluoroacetate] ; test system: PLD1 (Homo sapiens (Human), UniProt Q13393).
5.21

Determine reported pIC50 for O=C(NCCN1CCC2(CC1)C(=O)NC[C@H]2c1ccc(F)cc1)c1ccc2ccccc2c1.O=C(O)C(F)(F)F [P1D] ; test system: PLD1 (Homo sapiens (Human), UniProt Q13393).
5.43

Determine reported pIC50 for C[C@@H](CN1CCC2(CC1)C(=O)NC[C@H]2c1ccc(F)cc1)NC(=O)c1ccc2ccccc2c1 [P1Q, trifluoroacetate] ; test system: PLD1 (Homo sapiens (Human), UniProt Q13393).
7.03

Determine reported pIC50 for O=C(NCCN1CCC2(CC1)C(=O)NC[C@H]2c1ccc(F)cc1)c1ccc2ccccc2c1.O=C(O)C(F)(F)F [P22, trifluoroacetate] ; test system: PLD1 (Homo sapiens (Human), UniProt Q13393).
6.09

---

- Target Of Assay: PLD2 (Homo sapiens (Human))
- Measurement Protocol: Cellular CRCs: PLD2 response in HEK293gfpPLD2 (293-PLD2) cells
- Type: cell-based
- Experimental Parameters: HEK293 cells overexpressing GFP-tagged PLD2; read-out: Cellular CRCs 293-PLD2 IC50
Structures can show the parent of a compound that is named as a salt.
Response field label takes fulfilled when IC50 is strictly below 800 nM and not fulfilled in all other cases.

These recorded examples may help you get a feel for the data.
Answer whether the compound C[C@@H](CN1CCC2(CC1)C(=O)NCC2c1ccc(F)cc1)NC(=O)C1C[C@H]1c1ccccc1 (stereo partly drawn) [NGQ, trifluoroacetate] has IC50 strictly less than 800 nM
not fulfilled

Answer whether the compound C[C@@H](CN1CCC2(CC1)C(=O)NC[C@H]2c1ccc(F)cc1)NC(=O)c1ccc2ccccc2c1 [P1Q, trifluoroacetate] has IC50 strictly less than 800 nM
fulfilled

Answer whether the compound O=C(NCCN1CCC2(CC1)C(=O)NC[C@H]2c1ccc(F)cc1)c1ccc2ccccc2c1.O=C(O)C(F)(F)F [P22, trifluoroacetate] has IC50 strictly less than 800 nM
fulfilled

Answer whether the compound O=C(NCCN1CCC2(CC1)C(=O)NC[C@H]2c1ccc(F)cc1)c1ccc2ccccc2c1.O=C(O)C(F)(F)F [P1D] has IC50 strictly less than 800 nM
fulfilled

Answer whether the compound C[C@@H](CN1CCC2(CC1)C(=O)NC[C@@H]2c1ccc(F)cc1)NC(=O)C1C[C@H]1c1ccccc1 (stereo partly drawn) [P0A, trifluoroacetate] has IC50 strictly less than 800 nM
not fulfilled

// next entry
Answer whether the compound O=C(NCCN1CCC2(CC1)C(=O)NC[C@@H]2c1ccc(F)cc1)C1C[C@H]1c1ccccc1.O=C(O)C(F)(F)F (stereo partly drawn) [P1E, trifluoroacetate] has IC50 strictly less than 800 nM
fulfilled

Data provenance: patent US9127005B2
